Just for reference, paper PMC10415144 is where these values come from.

We begin with a simple list: items and their reported Kd.
Assayed Target: T1, SaCodY (Staphylococcus aureus, UniProt Q2FHI3 1-257)
T1 sequence: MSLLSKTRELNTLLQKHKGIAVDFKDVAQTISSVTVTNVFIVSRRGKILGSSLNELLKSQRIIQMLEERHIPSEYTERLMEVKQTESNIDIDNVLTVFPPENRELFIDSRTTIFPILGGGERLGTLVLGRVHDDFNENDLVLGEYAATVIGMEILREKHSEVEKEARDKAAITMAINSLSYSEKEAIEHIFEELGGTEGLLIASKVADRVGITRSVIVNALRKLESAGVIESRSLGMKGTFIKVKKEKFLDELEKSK
Experiment: BLI; Ile + GTP (implied); BLI: 20 mM Tris-HCl pH 8, 150 mM NaCl, 2 mM MgCl2, 0.1% NP-40, 25 C; 2 mM GTP and/or 10 mM Ile/Leu/Val as stated
Conditions: protein: recombinant; tags: His6 removed by TEV; N-terminal Gly-Ala remnant; chain copies: 4; label: 5'-biotin on one strand; 3-nt overhang at biotinylated 5' end
All answers are understood in nM, so give the number only.

>>> recorded_number("hutP operator overlapping sites (dsDNA) DNA 1: AGTTAATAGTTATCAGAATTTTTAGGAATTGAGTG DNA 2: CACTCAATTCCTAAAAATTCTGATAACTATTAACT")
598

Next, consider the following binder.
Q: Which value of Kd has been reported for hutP1 single site (dsDNA) DNA 1: AGTTAATAGTTATCAGAATTTTTAGG DNA 2: CCTAAAAATTCTGATAACTATTAACT in the records?
Ans: 1230
